Where do these numbers come from? They come from BigSolDB 2.1.

# cond: in n-propanol, 318.15 K
value type: solubility (mole fraction)

Let me know recorded solubility (mole fraction) for O=C1CCc2ccc(OCCCCN3CCN(c4cccc(Cl)c4Cl)CC3)cc2N1 , thanks.
0.000103

====

# cond: in acetone, 278.15 K
value type: solubility (mole fraction)
Give bare numbers.

Let me know recorded solubility (mole fraction) for O=C1CCc2ccc(OCCCCN3CCN(c4cccc(Cl)c4Cl)CC3)cc2N1 , thanks.
1.97e-05

====

# cond: in acetone, 293.15 K
value type: solubility (mole fraction)
Give bare numbers.

Let me know recorded solubility (mole fraction) for O=C1CCc2ccc(OCCCCN3CCN(c4cccc(Cl)c4Cl)CC3)cc2N1 , thanks.
4.71e-05

====

# cond: in acetone, 308.15 K
value type: solubility (mole fraction)
Answers are plain numbers.

Let me know recorded solubility (mole fraction) for O=C1CCc2ccc(OCCCCN3CCN(c4cccc(Cl)c4Cl)CC3)cc2N1 , thanks.
8.93e-05

====

# cond: in isopropanol, 303.15 K
value type: solubility (mole fraction)

Let me know recorded solubility (mole fraction) for O=C1CCc2ccc(OCCCCN3CCN(c4cccc(Cl)c4Cl)CC3)cc2N1 , thanks.
2.94e-05

====

# cond: in acetone, 313.15 K
value type: solubility (mole fraction)

Let me know recorded solubility (mole fraction) for O=C1CCc2ccc(OCCCCN3CCN(c4cccc(Cl)c4Cl)CC3)cc2N1 , thanks.
0.00011

====

# cond: in n-propanol, 303.15 K
value type: solubility (mole fraction)
Numbers only.

Let me know recorded solubility (mole fraction) for O=C1CCc2ccc(OCCCCN3CCN(c4cccc(Cl)c4Cl)CC3)cc2N1 , thanks.
5.37e-05

====

# cond: in isopropanol, 288.15 K
value type: solubility (mole fraction)
Answers are plain numbers.

Let me know recorded solubility (mole fraction) for O=C1CCc2ccc(OCCCCN3CCN(c4cccc(Cl)c4Cl)CC3)cc2N1 , thanks.
1.22e-05

====

# cond: in acetone, 298.15 K
value type: solubility (mole fraction)
One number for each entry.

Let me know recorded solubility (mole fraction) for O=C1CCc2ccc(OCCCCN3CCN(c4cccc(Cl)c4Cl)CC3)cc2N1 , thanks.
5.94e-05

====

# cond: in n-propanol, 288.15 K
value type: solubility (mole fraction)
Numbers only.

Let me know recorded solubility (mole fraction) for O=C1CCc2ccc(OCCCCN3CCN(c4cccc(Cl)c4Cl)CC3)cc2N1 , thanks.
2.57e-05

====

# cond: in isopropanol, 318.15 K
value type: solubility (mole fraction)
Numbers only.

Let me know recorded solubility (mole fraction) for O=C1CCc2ccc(OCCCCN3CCN(c4cccc(Cl)c4Cl)CC3)cc2N1 , thanks.
6.38e-05
